# Test system: Candida albicans
# Method Description: Antifungal activity against Candida albicans ATCC 90023 assessed as inhibition of fungal growth incubated for 24 hrs by CLSI based microbroth dilution method
# Format: functional
What log10 MIC was measured for each of the following?
Could you please treat all values as log10 of MIC in µM?

Task: Which log10 MIC reading was recorded for the molecule CCCCc1nc(Cl)c(/C=N/Nc2ccc3c4c(cccc24)C(=O)N(CCO)C3=O)n1Cc1ccc(Cl)cc1Cl ?
Result: 0.48

Task: Please answer likewise for CCCCc1nc(Cl)c(/C=N/Nc2ccc3c4c(cccc24)C(=O)N(CCO)C3=O)n1Cc1cccc(F)c1
Result: 0.85

Task: Please answer likewise for CCCCc1nc(Cl)c(/C=N/Nc2ccc3c4c(cccc24)C(=O)N(CCO)C3=O)n1Cc1ccc(Cl)cc1
Result: 0.85

Task: Please answer likewise for CCCCc1nc(Cl)c(/C=N/Nc2ccc3c4c(cccc24)C(=O)N(CCO)C3=O)n1CC(=O)OCC
Result: 1.79

Task: Please answer likewise for O=C1c2cccc3c(N/N=C/c4cc[nH]c4)ccc(c23)C(=O)N1CCO
Result: 2.56

Task: Please answer likewise for C/C(Cn1c([N+](=O)[O-])cnc1C)=N\Nc1ccc2c3c(cccc13)C(=O)N(CCO)C2=O
Result: 3.07

Task: Please answer likewise for C/C(Cn1c([N+](=O)[O-])cnc1C)=N\Nc1ccc2c3c(cccc13)C(=O)N(Cc1ccc(F)cc1)C2=O
Result: 3.01

Task: Please answer likewise for CCCCc1nc(Cl)c(/C=N/Nc2ccc3c4c(cccc24)C(=O)N(CCO)C3=O)n1Cc1cccc(Cl)c1
Result: 0.30

Task: Please answer likewise for CCCCc1nc(Cl)c(/C=N/Nc2ccc3c4c(cccc24)C(=O)N(CCO)C3=O)n1CC1CCCCC1
Result: 0.85

Task: Please answer likewise for O=C1c2cccc3c(N/N=C/c4ccc(O)cc4O)ccc(c23)C(=O)N1CCO
Result: 2.82
